Attribute: protein stability index
B1: KCNA3 (parent)
chain: GERVVINISGLRFETQLKTLCQFP

Variants of: B1
assayMethodText: protein stability index of a GFP-peptide fusion (GPS, HEK-293T) (PSI 1-6); higher = more stable;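 further: lentivirally expressed fusions sorted by FACS into six bins by GFP to DsRed ratio, PSI derived from sequencing read proportions per bin multiplied by bin number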
experimentalSetup: c terminus: a fixed tail appended
Field format: numeric only.

Sample records with protein stability index:
R3M | 4.26
L11A | 1.34
C21N | 1.37
L20K | 3.74
E14R | 1.89
I8H | 2.55
F13K | 1.67
L20C | 1.39

For the next question, use this variant.
(Q) Fill in: protein stability index of V4K is ___
(A) 2.23

These measurements were taken from the supplement of paper PMC10567573.
